Species on record: Mus musculus
measurement_notes: Binding affinity to prostanoid receptor in [8-14C]-adenine-treated CD-1 mouse ovary assessed as increase in c-AMP production at 25 ug/mL after 30 mins by paper chromatographic analysis in presence of phosphodiesterase inhibitor theophylline
Assay type: tissue-based
test_settings: Female gonad
property_label: fold change (FC)
Lab note: jot down the number only; don't add units.

>>> df
                                   compound    property_label  endpoint_value
0  CC(=O)C(CCCCO)CCCCCCC(=O)O (configuration not stated)  fold change (FC)               1

The record that follows has no fold change (FC) shown yet.
## Task Let me know recorded fold change (FC) for CCCCCC(O)CCCC(CCCCCCC(=O)O)C(C)=O (mixture of isomers) , thanks.
## Result 14
